Target: T1, A*03:01 (human), P04439
T1 chain: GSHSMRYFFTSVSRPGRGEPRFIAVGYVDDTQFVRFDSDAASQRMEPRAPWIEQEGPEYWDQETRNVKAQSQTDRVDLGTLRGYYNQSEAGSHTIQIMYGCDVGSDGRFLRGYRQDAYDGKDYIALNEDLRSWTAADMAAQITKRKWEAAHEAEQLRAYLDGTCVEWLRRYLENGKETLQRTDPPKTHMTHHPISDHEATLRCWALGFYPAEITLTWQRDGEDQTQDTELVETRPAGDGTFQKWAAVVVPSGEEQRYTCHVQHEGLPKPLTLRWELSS
Details: modification not given
pIC50: −log10 of the molar value.
experimentalEndpoint: pIC50

binder="ALKINWYRK [SEQ ID NO: 311 serotype 3]" experimentalendpoint=pIC50 recordedmeasurement=6.71

Entry source: patent US20180280496A1
